molecular target: human recombinant MAGL (Homo sapiens (Human)); assay: In vitro inhibition of MAGL activity (inhibitor screening kit, 4-nitrophenylacetate); details: human recombinant MAGL
Sequence (Q99685 whole entry): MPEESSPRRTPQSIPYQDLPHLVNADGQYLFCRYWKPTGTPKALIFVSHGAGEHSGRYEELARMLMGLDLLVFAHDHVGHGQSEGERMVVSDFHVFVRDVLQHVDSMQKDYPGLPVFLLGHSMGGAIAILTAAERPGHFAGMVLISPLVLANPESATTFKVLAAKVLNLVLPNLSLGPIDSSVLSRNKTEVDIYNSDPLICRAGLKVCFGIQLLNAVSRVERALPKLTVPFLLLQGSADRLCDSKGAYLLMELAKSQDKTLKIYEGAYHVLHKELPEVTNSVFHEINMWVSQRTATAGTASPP
For each of the molecules below, state its IC50.

Give the reported IC50 for Cc1ccc(-c2cncc(-c3ncco3)c2)cc1OC(=O)NCc1ccccc1 (system: human recombinant MAGL (Homo sapiens (Human))).
> 1 µM

Could you share what IC50 was measured for O=C(NCc1ccccc1)Oc1cc(O)cc(-c2cncc(-c3nnco3)c2)c1 , tested on human recombinant MAGL (Homo sapiens (Human))?
> 10 µM

Entry CCCCCCCCNC(=O)Oc1cc(F)cc(-c2cncc(-c3nnco3)c2)c1 , system human recombinant MAGL (Homo sapiens (Human)): what IC50 was measured?
~1 µM

API: value(readout= IC50, system= human recombinant MAGL (Homo sapiens (Human)), query= O=C(NCC1CCCCC1)Oc1cccc(-c2cncc(-c3ccc[nH]3)c2)c1 )
~10 µM

Tell me reported IC50 for CN(C)c1ccc(OC(=O)NCC2CCCCC2)cc1-c1cncc(-c2nnco2)c1 , tested with human recombinant MAGL (Homo sapiens (Human)).
> 10 µM

---

target: human recombinant FAAH (Homo sapiens (Human), UniProt O00519); assay: In vitro inhibition of FAAH activity (fluorescent inhibitor screening kit, AMC arachidonoyl amide); format: biochemical; conditions: human recombinant FAAH; read-out: Inhibition on FAAH activity (IC50)
Sequence (O00519 whole entry): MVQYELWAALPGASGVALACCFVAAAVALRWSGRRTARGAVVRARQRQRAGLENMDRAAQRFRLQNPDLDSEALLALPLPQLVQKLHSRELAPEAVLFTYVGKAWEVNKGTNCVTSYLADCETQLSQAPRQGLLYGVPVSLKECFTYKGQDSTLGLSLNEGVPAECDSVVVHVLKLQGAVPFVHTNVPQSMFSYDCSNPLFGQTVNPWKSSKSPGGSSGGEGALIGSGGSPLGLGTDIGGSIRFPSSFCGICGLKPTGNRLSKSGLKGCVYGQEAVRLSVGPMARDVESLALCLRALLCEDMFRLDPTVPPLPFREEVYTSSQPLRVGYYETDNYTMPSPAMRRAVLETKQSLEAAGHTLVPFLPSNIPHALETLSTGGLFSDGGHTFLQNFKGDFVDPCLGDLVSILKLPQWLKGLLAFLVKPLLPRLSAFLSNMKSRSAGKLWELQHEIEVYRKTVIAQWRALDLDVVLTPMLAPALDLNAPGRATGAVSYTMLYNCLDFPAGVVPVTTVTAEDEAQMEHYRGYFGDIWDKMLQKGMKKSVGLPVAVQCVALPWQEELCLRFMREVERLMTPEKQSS
pIC50: −log10 of the molar value.
Measured Quantity: pIC50

Quick one: pIC50 for COc1ccc(OC(=O)NCc2ccccc2)cc1-c1cncc(-c2nncs2)c1 ?
6.00 to 7.00

Endpoint output: pIC50 of COc1ccc(OC(=O)NC2CCCCC2)cc1-c1cncc(-c2nnn[nH]2)c1 . Value?
< 6.00

Form field: reported pIC50 of Cc1cc(OC(=O)NC2CCCCCC2)cc(-c2cncc(-c3ncco3)c2)c1
6.00 to 7.00

Could you share which pIC50 value was measured for CC1CCC(NC(=O)Oc2ccc(OC(F)(F)F)c(-c3cncc(-c4nnco4)c3)c2)CC1 (stereo not shown) ?
6.00 to 7.00

Tell me the measured pIC50 of CCCCCCCCNC(=O)Oc1ccc(OC)c(-c2cncc(-c3nnn[nH]3)c2)c1 , please.
6.00 to 7.00

For the compound shown here, CCCCCCNC(=O)Oc1cccc(-c2cncc(-c3nnco3)c2)c1 , give the reported pIC50.
7.70 to 8.00

Item CCCCCCCCCCCCCCNC(=O)Oc1cccc(-c2cncc(C(=O)OCC)c2)c1 has what recorded pIC50?
8.00 to 9.00

Need pIC50, item O=C(NCc1ccccc1)Oc1cc(F)cc(-c2cncc(-c3nnco3)c2)c1
< 6.00

// pIC50 lookup, key: O=C(NC1CCCC1)Oc1cccc(-c2cncc(-c3ccc[nH]3)c2)c1
6.00 to 7.00

# query: pIC50 of entry CCCCCCCCNC(=O)Oc1ccc(OC(F)(F)F)c(-c2cncc(-c3ncco3)c2)c1
7.00 to 8.00

Consider the compound CN(C)c1ccc(OC(=O)NCc2ccccc2)cc1-c1cncc(-c2nnco2)c1 and give its measured pIC50.
< 6.00

Returns the measured pIC50 for the input compound. Input: O=C(NC1CCCCC1)Oc1cccc(-c2cncc(-c3nnco3)n2)c1
6.85

I would be grateful if you could share the reported pIC50 for COc1ccc(OC(=O)NC2CCCCC2)cc1-c1cncc(-c2ccc[nH]2)c1 .
< 6.00
